Experimental Target: hMrgpMRGPRX2 (Homo sapiens, UniProt Q96LB1)
Construct: expressed in transfected cells
Sequence (Q96LB1 whole entry): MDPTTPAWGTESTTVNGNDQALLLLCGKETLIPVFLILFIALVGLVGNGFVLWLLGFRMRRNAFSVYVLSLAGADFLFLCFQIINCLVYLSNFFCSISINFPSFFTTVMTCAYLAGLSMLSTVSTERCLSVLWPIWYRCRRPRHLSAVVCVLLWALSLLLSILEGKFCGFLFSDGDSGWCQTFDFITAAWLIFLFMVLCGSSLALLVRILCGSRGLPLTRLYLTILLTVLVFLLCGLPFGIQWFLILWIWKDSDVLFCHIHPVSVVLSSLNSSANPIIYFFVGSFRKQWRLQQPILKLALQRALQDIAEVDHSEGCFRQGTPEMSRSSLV
Method: FLIPR intracellular calcium mobilization, antagonist activity in recombinant hMrgpMRGPRX2 expressing cells
Type: cell-based
Condition Summary: read-out: Human MrgprX2 Antagonist pIC50 (converted)
Description: Potent and selective hMrgpMRGPRX2 compounds have been generated from compounds identified during a high throughput screening (HTS) campaign and followed up with cycles of structure activity based medicinal chemistry efforts. […] The assays used to determine potencies are functional read-out looking at intracellular calcium mobilization using the FLIPR™ technology. […]
Property: IC50 (nM)

Consider the reported IC50 for these molecules:
[
  {
    "Molecule": "O=C(Nc1ccc(Oc2ccc(F)c(F)c2)cn1)N1CCCC1",
    "Uom": "nM",
    "IC50": 7940
  },
  {
    "Molecule": "CN(C[C@@](C)(O)C(F)(F)F)C(=O)Nc1ccc(Oc2ccc(F)cc2F)cn1",
    "Uom": "nM",
    "IC50": 2.04
  },
  {
    "Molecule": "CCN(C[C@@H](O)C(F)(F)F)C(=O)Nc1cnc(Oc2cccc(C#N)c2F)cn1",
    "Uom": "nM",
    "IC50": 2140
  },
  {
    "Molecule": "CC1(C)C(C(=O)Nc2ccc(-n3nccn3)cn2)C1(C)C",
    "Uom": "nM",
    "IC50": 15.1
  },
  {
    "Molecule": "CC1(C)C(C(=O)Nc2cc(C#N)ccn2)C1(C)C",
    "Uom": "nM",
    "IC50": 3160
  }
]

[1] CN(C[C@@](C)(O)C(F)(F)F)C(=O)Nc1cc(Oc2cccc(F)c2)ccn1
[2] CC(C)(C#N)C(=O)Nc1ccc(Oc2cccc(F)c2)cn1
[3] CCN(C[C@@H](O)C(F)(F)F)C(=O)Nc1cnc(OCc2cccc(F)c2)cn1
[4] CCN(C[C@@H](O)C(F)(F)F)C(=O)Nc1ccc(Oc2cc(F)ccc2F)cn1
Hey, can you sort those molecules up there by IC50, smallest first? List the labels according to the requested ordering.
4, 1, 2, 3
(4: 3.39 nM, 1: 42.7 nM, 2: 398 nM, 3: 676 nM)

All values here come from patent US20230027929A1.
